The reported numbers originate from patent US10968178B2.

- target of assay: human IP6K3 (Homo sapiens, UniProt Q96PC2)
- Construct: human IP6K3 (1-410) gene; made in house; host or cells: BL21 (DE3) Escherichia coli
- Sequence (Q96PC2 whole entry): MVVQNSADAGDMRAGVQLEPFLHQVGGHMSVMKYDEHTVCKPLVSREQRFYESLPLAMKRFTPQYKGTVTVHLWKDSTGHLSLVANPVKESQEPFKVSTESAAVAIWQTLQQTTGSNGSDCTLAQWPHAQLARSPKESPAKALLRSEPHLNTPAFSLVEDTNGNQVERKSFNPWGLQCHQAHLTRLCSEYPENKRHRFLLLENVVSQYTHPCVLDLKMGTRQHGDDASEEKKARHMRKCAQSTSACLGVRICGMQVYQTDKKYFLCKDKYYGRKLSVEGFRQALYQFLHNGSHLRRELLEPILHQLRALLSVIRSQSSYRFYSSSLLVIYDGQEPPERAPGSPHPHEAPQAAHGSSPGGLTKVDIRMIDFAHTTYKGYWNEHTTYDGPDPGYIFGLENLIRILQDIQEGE
- assay details: IP6K enzyme inhibitory assay (ADP-Glo Kinase Assay), human IP6K3
- Assay type: biochemical
- experimental context: compound concentration 0.1 μM; read-out: ADP-Glo method inhibitory rate (%) human IP6K3
measured parameter: inhibition at 0.1 µM (%)

>>> print(df.to_string())
                            smiles_notation                           target_of_assay  measurement_unit  measured
0  O=C(O)c1ccc2c(c1)[C@]1(CC[C@@H](Oc3c(Cl)cc(Cl)cc3Cl)CC1)C(=O)N2  human IP6K3 (Homo sapiens, UniProt Q96PC2)                 %        85
1  COc1ccc(O[C@H]2CC[C@@]3(CC2)C(=O)Nc2ccc(C(=O)O)cc23)c(C#N)c1  human IP6K3 (Homo sapiens, UniProt Q96PC2)                 %        99
2  O=C(O)c1ccc2c(c1)[C@]1(CC[C@@H](Oc3ccc(F)c(C(F)(F)F)c3)CC1)C(=O)N2  human IP6K3 (Homo sapiens, UniProt Q96PC2)                 %        97
3  Cc1cc(C(F)(F)F)cnc1O[C@H]1CC[C@]2(CC1)C(=O)Nc1ccc(C(=O)O)nc12  human IP6K3 (Homo sapiens, UniProt Q96PC2)                 %        99

----------
Quick reference: inhibition at 0.1 µM of the listed items.
- target of assay: human IP6K2 (Homo sapiens)
- Construct: human IP6K2 (1-426) gene; GST; made in house; host or cells: Sf-9 insect cells
- Sequence (Q9UHH9 1-426): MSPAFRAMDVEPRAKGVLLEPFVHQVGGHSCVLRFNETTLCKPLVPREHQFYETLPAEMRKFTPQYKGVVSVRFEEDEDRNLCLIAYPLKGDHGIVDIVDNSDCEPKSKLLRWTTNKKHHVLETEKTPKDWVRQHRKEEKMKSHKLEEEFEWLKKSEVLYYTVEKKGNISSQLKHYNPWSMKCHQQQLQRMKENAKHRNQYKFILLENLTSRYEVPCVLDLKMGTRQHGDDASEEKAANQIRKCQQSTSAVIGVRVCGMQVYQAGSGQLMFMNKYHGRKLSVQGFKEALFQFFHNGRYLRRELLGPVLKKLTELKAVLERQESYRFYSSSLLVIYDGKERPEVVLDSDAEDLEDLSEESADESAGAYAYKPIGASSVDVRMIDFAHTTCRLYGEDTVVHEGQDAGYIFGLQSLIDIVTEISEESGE
- assay details: IP6K enzyme inhibitory assay (ADP-Glo Kinase Assay), human IP6K2
- Type: biochemical
- experimental context: compound concentration 0.1 μM; read-out: ADP-Glo method inhibitory rate (%) human IP6K2
measured parameter: inhibition at 0.1 µM

                                   compound  measured
0  O=C(O)c1ccc2c(c1)[C@]1(CC[C@H](Oc3ccccc3)CC1)C(=O)N2 [Example 107]       93%
1  O=C(O)c1ccc2c(c1)[C@]1(CC[C@@H](Oc3ccc(F)cn3)CC1)C(=O)N2 [Example 22]       72%
2  Cc1ccc(C(F)(F)F)c(O[C@H]2CC[C@@]3(CC2)C(=O)Nc2ccc(C(=O)O)nc23)n1 [Example 18]       62%
3  N#Cc1cccc(O[C@H]2CC[C@@]3(CC2)C(=O)Nc2ccc(C(=O)O)cc23)c1F [Example 60]       90%
4  Cc1cc(Cl)cnc1O[C@H]1CC[C@@]2(CC1)C(=O)Nc1ccc(C(=O)O)nc12 [Example 17]       91%
5  O=C(O)c1ccc2c(n1)[C@]1(CC[C@H](Oc3ncc(Cl)cc3F)CC1)C(=O)N2 [Example 100]       98%
